molecular target: His-Tagged hOGA (human O-GlcNAcase) (Homo sapiens (Human)); test: Human O-GlcNAcase enzyme inhibition assay; type: biochemical; details: OGA enzyme inhibition assay; FL-GlcNAc substrate, pH 6.5; activity classes defined in μM; read-out: OGA IC50
Sequence (O60502 whole entry): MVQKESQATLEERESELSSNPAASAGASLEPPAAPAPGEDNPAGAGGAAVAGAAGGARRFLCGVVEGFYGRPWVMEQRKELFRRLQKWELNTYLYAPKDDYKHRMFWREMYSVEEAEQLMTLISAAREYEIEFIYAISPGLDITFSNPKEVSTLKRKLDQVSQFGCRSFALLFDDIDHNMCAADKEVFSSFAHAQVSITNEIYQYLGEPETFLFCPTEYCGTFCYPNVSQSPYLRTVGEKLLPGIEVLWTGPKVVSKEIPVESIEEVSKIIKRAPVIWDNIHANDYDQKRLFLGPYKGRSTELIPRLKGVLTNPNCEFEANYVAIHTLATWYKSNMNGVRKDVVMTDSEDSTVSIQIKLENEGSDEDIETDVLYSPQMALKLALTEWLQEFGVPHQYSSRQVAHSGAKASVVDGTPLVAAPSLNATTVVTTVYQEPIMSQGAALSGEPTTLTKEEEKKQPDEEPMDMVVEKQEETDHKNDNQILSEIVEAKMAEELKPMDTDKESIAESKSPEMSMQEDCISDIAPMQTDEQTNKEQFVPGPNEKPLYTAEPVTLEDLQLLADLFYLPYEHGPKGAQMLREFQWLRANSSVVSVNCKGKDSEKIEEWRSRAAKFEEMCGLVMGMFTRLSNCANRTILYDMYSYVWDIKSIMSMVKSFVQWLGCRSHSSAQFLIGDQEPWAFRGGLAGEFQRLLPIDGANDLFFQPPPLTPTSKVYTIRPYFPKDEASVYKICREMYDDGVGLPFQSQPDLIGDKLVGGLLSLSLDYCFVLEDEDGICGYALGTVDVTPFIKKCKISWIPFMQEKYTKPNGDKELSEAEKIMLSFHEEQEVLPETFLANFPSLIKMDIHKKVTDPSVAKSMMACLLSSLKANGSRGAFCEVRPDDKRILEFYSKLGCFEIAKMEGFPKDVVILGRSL
quantity kind: IC50

## Input What value of IC50 has been reported for the following compound? CC(c1ccc2nccnc2c1)N1CCN(c2nc3c(s2)CN(C)CC3)CC1 (racemic) [Example 20]
## Output 0.05 to 0.2 µM

## Input Subsequent entry: CC(O)c1ccc(N2CCN(C(C)c3ccc4c(c3)OCC4)CC2)nc1 (racemic) [Example 47]
## Output < 0.05 µM

## Input Subsequent entry: CC(c1ccc2nccnc2c1)N1CCN(c2nnc(CN)s2)CC1 (racemic) [Example 126]
## Output 0.2 to 1 µM

* * *

target: His-Tagged hOGA (human O-GlcNAcase) (Homo sapiens (Human)); assay: Human O-GlcNAcase enzyme inhibition assay; format: biochemical; settings: OGA enzyme inhibition assay; FL-GlcNAc substrate, pH 6.5; activity classes defined in μM; read-out: OGA IC50
quantity kind: IC50

Consider the reported IC50 for these molecules:
molecule	IC50
CC(c1ccc2nccnc2c1)N1CCN(c2ccc(C(=O)O)cn2)CC1 (racemic) [Example 67]	0.05 to 0.2 µM
CC(c1ccc2nccnc2c1)N1CCC(c2n[nH]c(=O)o2)CC1 (racemic) [Example 22]	0.2 to 1 µM
CC(=O)NCc1nnc(N2CCN(C(C)c3ccc4nccnc4c3)CC2)s1 (racemic) [Example 112]	0.05 to 0.2 µM

## Input What value of IC50 has been reported for the following molecule? CCOC(=O)c1nnc(N2CCN(C(C)c3ccc4c(c3)OCC4)CC2)s1 (racemic) [Example 117]
## Output 0.05 to 0.2 µM

## Input Subsequent entry: COC(=O)c1cnc(N2CCN(C(C)c3ccc4nccnc4c3)CC2)nc1 (racemic) [Example 105]
## Output 0.05 to 0.2 µM

* * *

Listed here: items and their measured IC50.
biological target: His-Tagged hOGA (human O-GlcNAcase) (Homo sapiens (Human)); assay: Human O-GlcNAcase enzyme inhibition assay; type: biochemical; details: OGA enzyme inhibition assay; FL-GlcNAc substrate, pH 6.5; activity classes defined in μM; read-out: OGA IC50

Consider the reported IC50 for these compounds:
compound	value observed
CC(c1ccc2nccnc2c1)N1CCN(c2nc3c(s2)CNCC3)CC1 (racemic) [Example 19]	0.05 to 0.2 µM
CC(c1ccc2nccnc2c1)N1CCN(c2ccc(C3(O)COC3)cn2)CC1 (racemic) [Example 59]	0.05 to 0.2 µM
CC(c1ccc2nccnc2c1)N1CCN(c2ccc(I)nn2)CC1 (racemic) [Example 43]	0.2 to 1 µM
CC(c1ccc2nccnc2c1)N1CCN(c2ccc(F)nn2)CC1 (racemic) [Example 41]	0.2 to 1 µM
CNC(=O)c1cccc(N2CCN(C(C)c3ccc4nccnc4c3)CC2)n1 (racemic) [Example 68]	0.05 to 0.2 µM

## Input Find IC50 (His-Tagged hOGA (human O-GlcNAcase) (Homo sapiens (Human))) for the entry CC(c1ccc2c(c1)OCC2)N1CCN(c2nccc(C(=O)N(C)C)n2)CC1 (racemic) [Example 101]
## Output < 0.05 µM

## Input Subsequent entry: COC(=O)c1ccnc(N2CCN(C(C)c3ccc4c(c3)OCC4)CC2)n1 (racemic) [Example 102]
## Output < 0.05 µM

## Input Subsequent entry: CC(c1ccc2nccnc2c1)N1CCN(c2ncc3c(n2)CCNC3)CC1 (racemic) [Example 8]
## Output < 0.05 µM

## Input Subsequent entry: COC(=O)c1ccc(N2CCN(C(C)c3ccc4nccnc4c3)CC2)nc1 (racemic) [Example 66]
## Output 0.05 to 0.2 µM

## Input Subsequent entry: CC(c1ccc2c(c1)OCC2)N1CCN(c2ncc(C3(O)CCCCC3)cn2)CC1 (racemic) [Example 80]
## Output < 0.05 µM

## Input Subsequent entry: CC(=O)Nc1cnn(C2CCN(C(C)c3ccc4nccnc4c3)CC2)c1 (racemic) [Example 27]
## Output 1 to 10 µM

## Input Subsequent entry: COC(=O)c1cnc(N2CCN(C(C)c3ccc4scnc4c3)CC2)nc1 (racemic) [Example 95]
## Output < 0.05 µM

## Input Subsequent entry: CC(c1ccc2c(c1)OCC2)N1CCC(n2cc(CO)cn2)CC1 (racemic) [Example 28]
## Output 0.2 to 1 µM

## Input Subsequent entry: CC(c1cnc2cccnc2c1)N1CCN(c2ncc(C(F)(F)F)cn2)CC1 (racemic) [Example 93]
## Output 0.2 to 1 µM

## Input Subsequent entry: Cc1cnc(N2CCN(C(C)c3ccc4c(c3)OCC4)CC2)nc1 (racemic) [Example 90]
## Output < 0.05 µM

## Input Subsequent entry: CC(c1ccc2scnc2c1)N1CCN(c2ncc(C(=O)N(C)C)cn2)CC1 (racemic) [Example 97]
## Output < 0.05 µM

* * *

biological target: His-Tagged hOGA (human O-GlcNAcase) (Homo sapiens (Human)); assay: Human O-GlcNAcase enzyme inhibition assay; assay type: biochemical; conditions: OGA enzyme inhibition assay; FL-GlcNAc substrate, pH 6.5; activity classes defined in μM; read-out: OGA IC50
Listed here: items and their measured IC50.

Consider the reported IC50 for these molecules:
molecule	IC50
Cc1nnc(C2CCN(C(C)c3ccc4c(c3)OCC4)CC2)o1 (racemic)	< 0.05 µM
CC(c1ccc2c(c1)OCC2)N1CCN(c2nnc(CO)s2)CC1 (racemic)	< 0.05 µM
CC(c1ccc2c(c1)OCC2)N1CCN(c2nc3c(s2)CNCC3)CC1 (racemic) [Example 15]	< 0.05 µM
COc1ccc(N2CCN(C(C)c3ccc4nccnc4c3)CC2)cn1 (racemic)	0.2 to 1 µM
CC(c1ccc2nccnc2c1)N1CCN(c2ccc(=O)[nH]n2)CC1 (single isomer, unassigned)	0.05 to 0.2 µM

## Input What value of IC50 has been reported for the following molecule? CC(c1ccc2nccnc2c1)N1CCN(c2nc3c(s2)C(=O)N(C)CC3)CC1 (racemic)
## Output 0.2 to 1 µM

## Input Subsequent entry: CNC(=O)c1cnc(N2CCN(C(C)c3ccc4c(c3)OCC4)CC2)nc1 (racemic)
## Output < 0.05 µM

## Input Subsequent entry: CC(c1ccc2nccnc2c1)N1CCN(c2ncc(C3(O)CCOCC3)cn2)CC1 (racemic)
## Output 0.05 to 0.2 µM

* * *

Listed here: items and their measured IC50.
molecular target: His-Tagged hOGA (human O-GlcNAcase) (Homo sapiens (Human)); test: Human O-GlcNAcase enzyme inhibition assay; assay type: biochemical; settings: OGA enzyme inhibition assay; FL-GlcNAc substrate, pH 6.5; activity classes defined in μM; read-out: OGA IC50

compound	value observed
CC(c1ccc2c(c1)OCC2)N1CCN(c2ncc(C3(O)CC3)cn2)CC1 (racemic)	< 0.05 µM
CC(O)c1ccc(N2CCN(C(C)c3ccc4nccnc4c3)CC2)nn1 (racemic)	0.2 to 1 µM
CC(=O)Nc1nnc(N2CCN([C@@H](C)c3cnc4cccnc4c3)CC2)s1	0.05 to 0.2 µM

## Input What value of IC50 has been reported for the following compound? CC(c1ccc2nccnc2c1)N1CCN(c2ncc(C(=O)O)cn2)CC1 (racemic)
## Output 0.05 to 0.2 µM

* * *

target: His-Tagged hOGA (human O-GlcNAcase) (Homo sapiens (Human)); assay: Human O-GlcNAcase enzyme inhibition assay; assay type: biochemical; settings: OGA enzyme inhibition assay; FL-GlcNAc substrate, pH 6.5; activity classes defined in μM; read-out: OGA IC50;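 further: reactions contained 20 nM His-tagged hOGA enzyme with 10 µM FL-GlcNAc substrate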
Listed here: items and their measured IC50.

## Input What value of IC50 has been reported for the following compound? CC(c1ccc2c(c1)OCC2)N1CCN(c2ccc(C(=O)N(C)C)cn2)CC1 (racemic) [Example 63]
## Output < 0.05 µM

## Input Subsequent entry: Cc1ccc(N2CCN(C(C)c3ccc4nccnc4c3)CC2)nn1 (racemic) [Example 44]
## Output 0.2 to 1 µM

## Input Subsequent entry: CC(C)C(O)c1cnc(N2CCN(C(C)c3ccc4c(c3)OCC4)CC2)nc1 (racemic) [Example 78]
## Output < 0.05 µM

## Input Subsequent entry: CC(c1ccn2ccnc2c1)N1CCN(c2ncc(C(F)(F)F)cn2)CC1 (racemic) [Example 91]
## Output 1 to 10 µM

## Input Subsequent entry: CC(c1ccc2cccnc2n1)N1CCN(c2ncc(C(O)C(F)(F)F)cn2)CC1 (racemic) [Example 83]
## Output < 0.05 µM

## Input Subsequent entry: CC(O)c1cnc(N2CCN(C(C)c3ccc4nccnc4c3)CC2)nc1 (racemic) [Example 84]
## Output 0.05 to 0.2 µM

## Input Subsequent entry: C[C@@H](c1cnc2cccnc2c1)N1CCN(c2ncc(C(F)(F)F)cn2)CC1 [Example 221]
## Output 0.2 to 1 µM

## Input Subsequent entry: CNC(=O)c1ccnc(N2CCN(C(C)c3ccc4c(c3)OCC4)CC2)n1 (racemic) [Example 103]
## Output < 0.05 µM
